subject_of_test: UniProtKB Q64077
Sequence (Q64077 whole entry): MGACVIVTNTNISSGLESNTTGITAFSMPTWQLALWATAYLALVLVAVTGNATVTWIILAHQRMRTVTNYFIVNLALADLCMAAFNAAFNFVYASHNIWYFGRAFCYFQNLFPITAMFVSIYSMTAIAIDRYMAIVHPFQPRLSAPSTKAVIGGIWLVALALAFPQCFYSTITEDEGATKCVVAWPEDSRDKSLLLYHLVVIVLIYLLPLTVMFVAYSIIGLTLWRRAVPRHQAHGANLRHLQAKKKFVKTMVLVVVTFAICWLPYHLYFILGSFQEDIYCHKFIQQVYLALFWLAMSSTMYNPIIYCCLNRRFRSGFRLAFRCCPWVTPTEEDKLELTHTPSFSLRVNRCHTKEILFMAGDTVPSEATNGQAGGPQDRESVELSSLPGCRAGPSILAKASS
procedure_details: Antagonist activity against Neurokinin 2 (NK2) receptor from guinea pig ileum at a concentration of 1 ug/mL
Assay type: functional, tissue-based
Quick list: inhibition per entry.

CC(C)Oc1cccc(CC(=O)N2CO[C@](CCN3CCC(C(N)=O)(c4ccccc4)CC3)(c3ccc(Cl)c(Cl)c3)C2)c1: 18%
COc1cc(C(=O)N2CO[C@](CCN3CCN(c4ncccn4)CC3)(c3ccc(Cl)c(Cl)c3)C2)cc(OC)c1OC: 48%
COc1ccccc1C(=O)N1CO[C@](CCN2CCC(C(N)=O)(c3ccccc3)CC2)(c2ccc(Cl)c(Cl)c2)C1: 87%
NC(=O)C1(c2ccccc2)CCN(CC[C@@]2(c3ccc(Cl)c(Cl)c3)CN(C(=O)c3cc4ccccc4[nH]3)CO2)CC1: 26%
NC(=O)C1(c2ccccc2)CCN(CC[C@@]2(c3ccc(Cl)c(Cl)c3)CN(C(=O)c3ccccn3)CO2)CC1: 73%

What measured inhibition goes with COc1ccc(C(=O)N2CO[C@](CCN3CCC(C(N)=O)(c4ccccc4)CC3)(c3ccc(Cl)c(Cl)c3)C2)cc1OC ?
88%

And the next one, COc1cc(C(=O)N2CO[C@](CCN3CCC(C(=O)c4ccc(Cl)cc4)CC3)(c3ccc(Cl)c(Cl)c3)C2)cc(OC)c1OC ?
54%

And the next one, NC(=O)C1(c2ccccc2)CCN(CC[C@@]2(c3ccc(Cl)c(Cl)c3)CN(C(=O)c3ccncc3)CO2)CC1 ?
57%

---

subject_of_test: Substance-K receptor (Cavia porcellus)
procedure_details: Antagonist activity against Neurokinin 2 (NK2) receptor from guinea pig ileum at a concentration of 1 ug/mL
Format: functional, tissue-based
quantity_kind: inhibition (%)
Return type: number; implicit unit %.

COc1cc(C(=O)N2CO[C@](CCN3CCC4(CC3)OCc3ccccc34)(c3ccc(Cl)c(Cl)c3)C2)cc(OC)c1OC: 91
COc1ccc(C(=O)N2CO[C@](CCN3CCC(C(N)=O)(c4ccccc4)CC3)(c3ccc(Cl)c(Cl)c3)C2)c(OC)c1: 85
COc1cccc(C(=O)N2CO[C@](CCN3CCC(C(N)=O)(c4ccccc4)CC3)(c3ccc(Cl)c(Cl)c3)C2)c1: 82
COc1cc(OC)cc(C(=O)N2CO[C@](CCN3CCC(C(N)=O)(c4ccccc4)CC3)(c3ccc(Cl)c(Cl)c3)C2)c1: 97

Then there is this compound:
What measured inhibition goes with NC(=O)C1(c2ccccc2)CCN(CC[C@@]2(c3ccc(Cl)c(Cl)c3)CN(C(=O)c3ccc(Cl)cc3)CO2)CC1 ?
88
